# TEST: Plasma concentration in CD1 mouse at 100 mg/kg, ip at 6 hrs
# Assay type: ADME, organism-based
# Design: dose 100 mg/kg, route intraperitoneal
METRIC_NAME: concentration at 6 h
Kindly write the number and append the unit.

INPUT: Could you tell me which concentration at 6 h is on file for CCO[C@@H]([C@H]1C[C@@H](C)[C@H]2[C@H](O1)[C@H](O)[C@@]1(C)[C@@H]3CC[C@H]4C(C)(C)[C@@H](O[C@H]5CN(CCOC)CCO5)CC[C@@]45C[C@@]35CC[C@]21C)C(C)(C)O ?
OUTPUT: 12 µM

###

# TEST: Metabolic stability in human liver microsomes assessed as compound remaining at 1 uM at 60 mins by LC/MS/MS analysis in presence of NADPH
# Format: ADME, Microsome
# PROTOCOL_CONDITIONS: read-out: Stability
METRIC_NAME: remaining at 1 h, 1 µM (%)
Express it in %; write the number only.

SMILES: CC(=O)O[C@@H]([C@H]1C[C@@H](C)[C@H]2[C@H](O1)[C@H](O)[C@@]1(C)[C@@H]3CC[C@H]4C(C)(C)[C@@H](O[C@H]5CN(C6COC6)CCO5)CC[C@@]45C[C@@]35CC[C@]21C)C(C)(C)O
ENDPOINT_UNIT: %
remaining at 1 h, 1 µM: 1

The record that follows has no remaining at 1 h, 1 µM shown yet.
INPUT: Recorded remaining at 1 h, 1 µM for C[C@@H]1C[C@H]([C@H](O)C(C)(C)O)O[C@H]2[C@H]1[C@@]1(C)CC[C@@]34C[C@@]35CC[C@H](O[C@H]3CN(C6COC6)CCO3)C(C)(C)[C@@H]5CC[C@H]4[C@]1(C)[C@H]2O , please?
OUTPUT: 81

###

# TEST: Plasma concentration in CD1 mouse at 3 mg/kg, iv at 6 hrs
# Format: ADME, organism-based
# Design: dose 3 mg/kg, route intravenous
Overview of recorded concentration at 6 h for various compounds
Write the number in nM without appending the unit.

SMILES: CCO[C@@H]([C@H]1C[C@@H](C)[C@H]2[C@H](O1)[C@H](O)[C@@]1(C)[C@@H]3CC[C@H]4C(C)(C)[C@@H](O[C@H]5CNCCO5)CC[C@@]45C[C@@]35CC[C@]21C)C(C)(C)O
concentration at 6 h [nM]: 192

From here, focus on the item given below.
INPUT: Look at this compound and give its reported concentration at 6 h. CCO[C@@H]([C@H]1C[C@@H](C)[C@H]2[C@H](O1)[C@H](O)[C@@]1(C)[C@@H]3CC[C@H]4C(C)(C)[C@@H](O[C@H]5CN(C6COC6)CCO5)CC[C@@]45C[C@@]35CC[C@]21C)C(C)(C)O
OUTPUT: 24

###

# TEST: Modulation of gamma secretase in CHO-2B7 cells assessed as reduction in amyloid beta 42 level after 5 hrs by MSD ELISA
# Assay type: cell-based
# PROTOCOL_CONDITIONS: Cricetulus griseus, CHO-2B7, 5 h
METRIC_NAME: log10(IC50) (log10 of the value in nM)
Would you kindly interpret these values as log10 of IC50 expressed in nM?

Consider the following illustrative entries.
SMILES: CC(C)[C@@H](OC(=O)N1CCC1)[C@H]1C[C@@H](C)[C@H]2[C@H](O1)[C@H](O)[C@@]1(C)[C@@H]3CC[C@H]4C(C)(C)[C@@H](O[C@H]5CN(CC(=O)O)CCO5)CC[C@@]45C[C@@]35CC[C@]21C
log10(IC50): 2.85

SMILES: CCO[C@@H]([C@H]1C[C@@H](C)[C@H]2[C@H](O1)[C@H](O)[C@@]1(C)[C@@H]3CC[C@H]4C(C)(C)[C@@H](OC(=O)NC5COC5)CC[C@@]45C[C@@]35CC[C@]21C)C(C)(C)O
log10(IC50): 2.15

SMILES: CC(=O)OC[C@H]1C[C@@H](C)[C@H]2[C@H](O1)[C@H](O)[C@@]1(C)[C@@H]3CC[C@H]4C(C)(C)[C@@H](O[C@H]5CN(C(=O)CC6CC6)CCO5)CC[C@@]45C[C@@]35CC[C@]21C
log10(IC50): 2.38

SMILES: CCO[C@@H]([C@H]1C[C@@H](C)[C@H]2[C@H](O1)[C@H](O)[C@@]1(C)[C@@H]3CC[C@H]4C(C)(C)[C@@H](OC(=O)NCCNS(=O)(=O)C(F)(F)F)CC[C@@]45C[C@@]35CC[C@]21C)C(C)(C)O
log10(IC50): 2.85

SMILES: CC(C)[C@@H](OC(=O)N1CCC1)[C@H]1C[C@@H](C)[C@H]2[C@H](O1)[C@H](O)[C@@]1(C)[C@@H]3CC[C@H]4C(C)(C)[C@@H](OC(=O)N5CCC5)CC[C@@]45C[C@@]35CC[C@]21C
log10(IC50): 2.67

INPUT: Fill blank: measured log10(IC50) of the molecule CC(=O)O[C@@H]([C@H]1C[C@@H](C)[C@H]2[C@H](O1)[C@H](O)[C@@]1(C)[C@@H]3CC[C@H]4C(C)(C)[C@@H](OC(=O)N5CCOCC5)CC[C@@]45C[C@@]35CC[C@]21C)C(C)(C)O is ____.
OUTPUT: 2.49
